Record form. Attribute: ELISA_avg. Fill in for each entry.
TESTED SYSTEM: T1, CD123 (Homo sapiens (Human), UniProt P26951 19-305, limits assumed)
T1 construct: also called CD123-Signal
T1 sequence: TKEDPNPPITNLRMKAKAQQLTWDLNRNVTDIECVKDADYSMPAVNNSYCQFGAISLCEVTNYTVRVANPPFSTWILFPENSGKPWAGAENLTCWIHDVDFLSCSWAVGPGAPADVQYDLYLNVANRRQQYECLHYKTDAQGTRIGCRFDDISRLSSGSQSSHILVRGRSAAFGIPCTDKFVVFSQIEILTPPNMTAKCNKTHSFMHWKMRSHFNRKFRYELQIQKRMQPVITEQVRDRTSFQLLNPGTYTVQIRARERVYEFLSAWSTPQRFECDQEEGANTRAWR
ASSAY NOTES: ELISA, format not described
Parameters: unit not given here
Answers are plain numbers.

Record excerpt, results attached:
binder="D domain SEQ ID NO: 725 (designed binder) MGSWSEFEYRLFAIENRLDALGGSEAELAAFEKEIAAFESELQAYKGKGNPEVEFLREEAAMIRQLLQAYRHN" measured=3.2
binder="D domain SEQ ID NO: 710 (designed binder) MGSWGEFWARLEAIWIRLDALGGSEAELAAFEKEIAAFESELQAYKGKGNPEVEWLREEAADIRRSLQAYRHN" measured=15
binder="D domain SEQ ID NO: 723 (designed binder) MGSWYEFMVRLDAIEERLFALGGSEAELAAFEKEIAAFESELQAYKGKGNPEVEFLREEAASIRYHLQAYRHN" measured=4.1
binder="D domain SEQ ID NO: 700 (designed binder) MGSWEEFDDRLDAIEHRLWALGGSEAELADFEGSIAAFESWLQVYKGKGNPEVEALEAEAEAIADELWAYRHN" measured=4
binder="D domain SEQ ID NO: 721 (designed binder) MGSWFEFVDRLTAIQVRLWALGGSEAELAAFEKEIAAFESELQAYKGKGNPEVEYLREEAALIRYSLQAYRHN" measured=5.1

Record ELISA_avg per entry; entries follow.
1. D domain SEQ ID NO: 696 (designed binder) MGSWLEFEDRLVAIDHRLFALGGSEAELAEFEEEIALFESYLQDYKGKGNPEVEALNWEADAIHAELYAYRHN
2. D domain SEQ ID NO: 762 (designed binder) MGSWFEFEWRLEAIFDRLYALGGSEAELAAFEKEIAAFESELQAYKGKGNPEVEVLRAEAAEIRLRLQAYRHN

Reply text:
1. 3.9
2. 6.9
